Test system: V-C8 (BRCA2-deficient hamster cells)
ASSAY_DETAILS: normalised cell viability (fraction of plate median); higher = more viable cells (less toxic)
CONDITIONS_USED: treatment time: 3 days; 5 µM
Structures can show the parent of a compound that is named as a salt. Over roughly 1,300 compounds, “normalised cell viability” has its median near 1; the lowest 2% begin near 0.14. The sample holds the lowest values, similar compounds and a random draw of the others, so the mix is not that of the screen.
Catalogue of normalised cell viability values

| MOLECULE | normalised cell viability |
| --- | --- |
| CC(C)(C)NC[C@H](O)c1ccc(O)c(CO)c1 [Levalbuterol hydrochloride] | 1.03 |
| CC1(C)S[C@@H]2[C@H](NC(=O)[C@H](NC(=O)N3CCNC3=O)c3ccccc3)C(=O)N2[C@H]1C(=O)O [Azlocillin sodium salt] | 1.01 |
| OC(CCCN1CCCCC1)(c1ccccc1)c1ccccc1 [Diphenidol hydrochloride] | 1.06 |
| O=C(Nc1ccc([N+](=O)[O-])cc1Cl)c1cc(Cl)ccc1O [Niclosamide] | 0.124 |
| CC(C)NCC(O)c1ccc(O)c(O)c1 (single isomer, unassigned; (+)) [(+)-Isoproterenol (+)-bitartrate salt] | 1.03 |
| CCN(CC)CCN[C@@H](C(=O)OCCC(C)C)c1ccccc1 [Camylofine chlorhydrate] | 1.07 |
| Cc1cn([C@H]2C=C[C@@H](CO)O2)c(=O)[nH]c1=O | 1.05 |
| O=C1NCCN1CCN1CCC(c2cn(-c3ccc(F)cc3)c3ccc(Cl)cc23)CC1 | 0.385 |
